- assay_procedure: qHTS assay to test for compound auto fluorescence at 590 nm (red) in HepG2 cells (AID 720674); note: % is set by controls: 0 for no effect and ±100 for the full control effect
- stated_conditions: HepG2 autofluorescence, red 540/590 nm, 1 h; series mostly up to 46 µM
- Description: U.S. Tox21 Program National Center for Advancing Translational Sciences [NCATS] NIH Chemical Genomics Center [NCGC] U.S. Environmental Protection Agency [EPA] National Institutes of Environmental Health Sciences [NIEHS] National Toxicology Program [NTP] U.S. Food and Drug Administration [FDA] Tox21 Assay Overview: Compound auto fluorescence often interferes with screening of the compound library against various biological targets and signaling pathways. […] This assay includes the red fluorescence data. […]
Activity calls are given as the source filed them. Calls come from the whole dose curve; as a rule, active = well fitted curve in the direction sought with a large enough effect in the repeat runs; inconclusive = weak or mixed curves; inactive = flat fitted curve, though single readings scatter.

compound: CCOC(=O)[C@H](CCc1ccccc1)N[C@@H](C)C(=O)N1[C@H](C(=O)O)C[C@@H]2CCC[C@@H]21
fluorescence, relative to Rose Bengal: inactive

compound: Cc1cc(O)cc2c1O[C@](C)(CCC[C@H](C)CCC[C@H](C)CCCC(C)C)CC2
fluorescence, relative to Rose Bengal: inactive

compound: CC(=O)CC(C)C
fluorescence, relative to Rose Bengal: inactive

compound: CCCCNC(=O)NCCCC
fluorescence, relative to Rose Bengal: inactive

compound: CC/C=C\CC/C=C/CO
fluorescence, relative to Rose Bengal: inactive

compound: CCN(CC)CCNC(=O)c1cc(S(C)(=O)=O)ccc1OC
fluorescence, relative to Rose Bengal: inactive

compound: CCCCCCCCCCCCCC=O
fluorescence, relative to Rose Bengal: 0.0167% [at 3.72 µM] (inactive)

compound: CN(C)CCCSc1ccccc1NC(=O)/C=C/c1ccccc1
fluorescence, relative to Rose Bengal: inactive

compound: CCN(Cc1ccncc1)C(=O)C(CO)c1ccccc1 (stereo not drawn)
fluorescence, relative to Rose Bengal: inactive

compound: c1cnc(N2CCN(Cc3ccc4c(c3)OCO4)CC2)nc1
fluorescence, relative to Rose Bengal: inactive

compound: C=C(C)C(=O)OCCCCCCCC(C)C
fluorescence, relative to Rose Bengal: inactive

compound: CC(C)NCC(O)c1ccc(NS(C)(=O)=O)cc1 (stereo not drawn)
fluorescence, relative to Rose Bengal: inactive

compound: NC(=O)c1ccc(N)cc1
fluorescence, relative to Rose Bengal: inactive

Entry source: PubChem BioAssay (Tox21)
